experimental_system: Vv-DHDPS (Vitis vinifera)
Construct: control enzyme; construct not described here
Sequence (D7U7T8 40-365 limits assumed): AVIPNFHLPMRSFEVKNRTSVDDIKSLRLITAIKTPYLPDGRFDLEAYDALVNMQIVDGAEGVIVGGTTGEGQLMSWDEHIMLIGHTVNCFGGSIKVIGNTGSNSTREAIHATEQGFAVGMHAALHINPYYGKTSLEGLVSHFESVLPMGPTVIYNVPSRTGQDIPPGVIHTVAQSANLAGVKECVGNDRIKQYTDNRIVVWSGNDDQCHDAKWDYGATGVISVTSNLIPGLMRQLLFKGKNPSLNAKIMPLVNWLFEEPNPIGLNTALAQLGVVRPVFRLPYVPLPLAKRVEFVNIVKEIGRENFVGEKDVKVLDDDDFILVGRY
procedure_details: DHDPS-DHDPR coupled assay, dose response, four-parameter logistic
reported_conditions: 30 °C; allosteric feedback inhibitor; control enzyme
pIC50: −log10 of the molar value.
result_type: pIC50

1. NCCCC[C@H](N)C(=O)O [(S)-lysine] : 4.52
